Assay: Example 5: 4-CNAB plasma pharmacokinetics, single oral doses, healthy male volunteers
Assay type: in vivo, human
Settings: 4-CNAB alone 400 mg oral

[
  {
    "chemical-structure": "O=C(O)CCCNC(=O)c1ccc(Cl)cc1O",
    "4-CNAB Kel, h⁻¹": 0.11
  }
]

---

Test: Example 5: 4-CNAB plasma pharmacokinetics, single oral doses, healthy male volunteers
Assay type: in vivo, human
Conditions: male, human, plasma, po, 800 mg, 4-CNAB alone 800 mg oral
attribute-measured: AUC(0-inf) (ng·h/mL)

[
  {
    "molecule": "O=C(O)CCCNC(=O)c1ccc(Cl)cc1O [4-CNAB]",
    "output-unit": "ng·h/mL",
    "observed": 49400
  }
]

---

Test: Example 5: 4-CNAB plasma pharmacokinetics, single oral doses, healthy male volunteers
Format: in vivo, human
Details: male, human, plasma, po, 2000 mg, 4-CNAB alone 2000 mg oral

[
  {
    "chemical-structure": "O=C(O)CCCNC(=O)c1ccc(Cl)cc1O",
    "Cmax, µg/mL": 135
  }
]

---

Assay: Example 5: 4-CNAB plasma pharmacokinetics, single oral doses, healthy male volunteers
Assay type: in vivo, human
Settings: male, human, plasma, oral, 400 mg, Group/Treatment 1/1, 4-CNAB dose 400, alone; unaudited data

[
  {
    "chemical-structure": "O=C(O)CCCNC(=O)c1ccc(Cl)cc1O",
    "output-unit": "ng/mL",
    "Cmax": 22300
  }
]

---

Test: Example 5: 4-CNAB plasma pharmacokinetics, single oral doses, healthy male volunteers
Assay type: in vivo, human
Settings: male, human, plasma, oral, Group/Treatment 3/3, 4-CNAB dose 100, with insulin; unaudited data

[
  {
    "compound": "O=C(O)CCCNC(=O)c1ccc(Cl)cc1O [4-CNAB]",
    "output-unit": "ng/mL",
    "Cmax": 5170
  }
]

---

Experiment: Example 5: 4-CNAB plasma pharmacokinetics, single oral doses, healthy male volunteers
Type: in vivo, human
Conditions: male, human, plasma, oral, 800 mg, Group/Treatment 1/2, 4-CNAB dose 800, alone; unaudited data; read-out: 4-CNAB tmax (range)
Experimental: A single center, double-blind, randomized placebo-controlled study undertaken in healthy human subjects in order to assess the safety and tolerability of escalating single oral doses of 4-CNAB capsules and insulin/4-CNAB capsules. […] The concentration of 4-CNAB in plasma was determined using a combination of liquid chromatography and Mass spectrometry assay known as LC-MS/MS. […] The eluting peaks were quantified by MS/MS. […]

[
  {
    "chemical-structure": "O=C(O)CCCNC(=O)c1ccc(Cl)cc1O",
    "output-unit": "min",
    "Tmax": 30
  }
]

---

Assay: Example 5: 4-CNAB plasma pharmacokinetics, single oral doses, healthy male volunteers
Assay type: in vivo, human
Conditions: male, human, plasma, oral, 1400 mg, Group/Treatment 1/3, 4-CNAB dose 1400, alone; unaudited data; read-out: 4-CNAB tmax (range)

[
  {
    "chemical-structure": "O=C(O)CCCNC(=O)c1ccc(Cl)cc1O",
    "output-unit": "min",
    "Tmax": 30
  }
]

---

Experiment: Example 5: 4-CNAB plasma pharmacokinetics, single oral doses, healthy male volunteers
Assay type: in vivo, human
Conditions: male, human, plasma, oral, Group/Treatment 3/2, 4-CNAB dose 450, with insulin; unaudited data; read-out: 4-CNAB tmax (range)

[
  {
    "chemical-structure": "O=C(O)CCCNC(=O)c1ccc(Cl)cc1O",
    "Tmax / min": 30
  }
]

---

Test: Example 5: 4-CNAB plasma pharmacokinetics, single oral doses, healthy male volunteers
Type: in vivo, human
Details: male, human, plasma, po, 2000 mg, 4-CNAB alone 2000 mg oral; read-out: 4-CNAB tmax, median (range)

[
  {
    "molecule": "O=C(O)CCCNC(=O)c1ccc(Cl)cc1O [4-CNAB]",
    "output-unit": "min",
    "Tmax": 45
  }
]

---

Assay: Example 5: 4-CNAB plasma pharmacokinetics, single oral doses, healthy male volunteers
Format: in vivo, human
Conditions: male, human, plasma, po, 2000 mg, 4-CNAB alone 2000 mg oral
Procedure: A single center, double-blind, randomized placebo-controlled study undertaken in healthy human subjects in order to assess the safety and tolerability of escalating single oral doses of 4-CNAB capsules and insulin/4-CNAB capsules. […] The concentration of 4-CNAB in plasma was determined using a combination of liquid chromatography and Mass spectrometry assay known as LC-MS/MS. […] The eluting peaks were quantified by MS/MS. […]

[
  {
    "chemical-structure": "O=C(O)CCCNC(=O)c1ccc(Cl)cc1O",
    "AUC(0-t)": "204 µg·h/mL"
  }
]

---

Assay: Example 5: 4-CNAB plasma pharmacokinetics, single oral doses, healthy male volunteers
Type: in vivo, human
Conditions: male, human, plasma, oral, 2000 mg, Group/Treatment 1/4, 4-CNAB dose 2000, alone; unaudited data

[
  {
    "chemical-structure": "O=C(O)CCCNC(=O)c1ccc(Cl)cc1O",
    "output-unit": "µg/mL",
    "Cmax": 122
  }
]

---

Assay: Example 8: food effect on 4-CNAB pharmacokinetics, type 1 diabetes patients
Assay type: in vivo, human
Conditions: human, plasma, po, 400 mg, 400 mg 4-CNAB/300 IU insulin oral; Breakfast 20 min post-dose

[
  {
    "compound": "O=C(O)CCCNC(=O)c1ccc(Cl)cc1O [4-CNAB]",
    "Cmax": "25000 ng/mL"
  }
]

---

Experiment: Example 8: food effect on 4-CNAB pharmacokinetics, type 1 diabetes patients
Format: in vivo, human
Conditions: human, plasma, oral, period 0-20 minutes post-dose; Breakfast 20 min post-dose

[
  {
    "compound": "O=C(O)CCCNC(=O)c1ccc(Cl)cc1O [4-CNAB]",
    "AUC [ng·h/mL]": 2800
  }
]

---

Experiment: Example 8: food effect on 4-CNAB pharmacokinetics, type 1 diabetes patients
Format: in vivo, human
Conditions: human, plasma, po, 400 mg, 400 mg 4-CNAB/300 IU insulin oral; Breakfast 30 min post-dose

[
  {
    "compound": "O=C(O)CCCNC(=O)c1ccc(Cl)cc1O [4-CNAB]",
    "Cmax, ng/mL": 24000
  }
]

---

Experiment: Example 5: 4-CNAB plasma pharmacokinetics, single oral doses, healthy male volunteers
Assay type: in vivo, human
Conditions: male, human, plasma, po, 2000 mg, 4-CNAB alone 2000 mg oral; read-out: 4-CNAB Vd/F

[
  {
    "chemical-structure": "O=C(O)CCCNC(=O)c1ccc(Cl)cc1O",
    "Vd/F, L": 245
  }
]

---

Assay: Delivery agent plasma concentrations in monkeys after oral administration
Format: in vivo
Settings: monkey, plasma, oral, 300 mg

[
  {
    "compound": "O=C(O)CCCNC(=O)c1ccc(Cl)cc1O",
    "AUC": "499 ng·h/mL"
  },
  {
    "compound": "O=C(O)CCCCCCCCCNC(=O)c1ccccc1O [2 (SNAD), reference compound]",
    "AUC": "82 ng·h/mL"
  },
  {
    "compound": "O=C(O)CCCCCCCNC(=O)c1ccccc1O [1 (SNAC), reference compound]",
    "AUC": "45 ng·h/mL"
  }
]

---

Test: Example 8: food effect on 4-CNAB pharmacokinetics, type 1 diabetes patients
Format: in vivo, human
Settings: human, plasma, oral, period 0-30 minutes post-dose; Fasting
attribute-measured: AUC (ng·h/mL)

[
  {
    "chemical-structure": "O=C(O)CCCNC(=O)c1ccc(Cl)cc1O",
    "observed": 6300
  }
]

---

Experiment: Delivery agent plasma concentrations in humans after oral delivery agent capsules
Type: in vivo, human
Details: plasma; oral capsules, 750 mg, healthy human volunteers
Method: Delivery agents 1-3 were investigated for their ability to penetrate the GI mucosa. The plasma concentration of each delivery agent was measured in human subjects after oral administration of delivery agent loaded capsules as a measure of each delivery agent's penetration efficiency. […] The indicated doses were ingested by healthy human volunteers and the plasma concentrations of the delivery agents were monitored over time and the area under the curve (AUC) calculated. […]

[
  {
    "molecule": "O=C(O)CCCCCCCCCNC(=O)c1ccccc1O [2 (SNAD), reference compound]",
    "AUC / ng·h/mL": 2040
  },
  {
    "molecule": "O=C(O)CCCCCCCNC(=O)c1ccccc1O [1 (SNAC), reference compound]",
    "AUC / ng·h/mL": 3500
  }
]

---

Experiment: Example 5: 4-CNAB plasma pharmacokinetics, single oral doses, healthy male volunteers
Type: in vivo, human
Settings: male, human, plasma, oral, Group/Treatment 3/1, 4-CNAB dose 300, with insulin; unaudited data
attribute-measured: AUC

[
  {
    "chemical-structure": "O=C(O)CCCNC(=O)c1ccc(Cl)cc1O",
    "attribute-measured": "AUC",
    "observed": "8740 ng·h/mL"
  }
]
